// Plasma Stab(h) % rem/60 min lookup, one value per entry
- ASSAY_TEXT: Plasma stability (h)
- Assay type: in vitro ADME, human
- COND: % remaining at 60 min
Only the number, expressed in %, is required.

// worked examples, Plasma Stab(h) % rem/60 min included
{"COMPOUND": "O=C(NC[C@H](NC(=O)c1c(Cl)ccc(Nc2ncc3ccccc3n2)c1Cl)C(=O)O)N[C@@H]1CCc2ccccc21 [SU15210-0076-01]", "METRIC_NAME": "Plasma Stab(h) % rem/60 min", "RECORDED_NUMBER": 55.6}
{"COMPOUND": "O=C(Cc1cccc(Cl)c1)Nc1ccc(Cl)c(C(=O)N[C@@H](CNC(=O)N[C@@H]2CCc3ccccc32)C(=O)O)c1Cl [SU15210-0099-01]", "METRIC_NAME": "Plasma Stab(h) % rem/60 min", "RECORDED_NUMBER": 85.84}
{"COMPOUND": "O=C(NC[C@H](NC(=O)c1c(Cl)cc2c(c1Cl)CCN(C(=O)c1ccccc1)C2)C(=O)O)N[C@@H]1CCc2ccccc21 [SU15210-0173-01]", "METRIC_NAME": "Plasma Stab(h) % rem/60 min", "RECORDED_NUMBER": 108}

// moving on: another record for Plasma Stab(h) % rem/60 min
Prompt: // Plasma Stab(h) % rem/60 min lookup, key: O=C(NC[C@H](NC(=O)c1c(Cl)cc(C(=O)NCc2cccc(O)c2)cc1Cl)C(=O)O)N[C@@H]1CCc2ccccc21 [SU15210-0095-01]
Response: 99.4
